These measurements were taken from patent US10722520B2.

// values below are reported pIC50
tested.on: OXA-1 (Escherichia coli, UniProt P13661)
pIC50: −log10 of the molar value.
attribute.measured: pIC50

compound="O=C(c1ccn(C2=CC3CN(C2)C(=O)N3OS(=O)(=O)[O-])n1)N1CCOCC1.[Na+] (stereo not shown) [Example 31, sulfate]" attribute_measured=pIC50 endpoint_value=7.19
compound="NC(=O)c1cnn(C2=CC3CN(C2)C(=O)N3OS(=O)(=O)[O-])c1.[Na+] (stereo not shown)" attribute_measured=pIC50 endpoint_value=6.60
compound="O=C1N2CC(n3ncnn3)=CC(C2)N1OS(=O)(=O)[O-].[Na+] (stereo not shown)" attribute_measured=pIC50 endpoint_value=7.44
compound=O=C1N2CC(n3ccnn3)=C[C@H](C2)N1OS(=O)(=O)O attribute_measured=pIC50 endpoint_value=7.51

----------
Tested on: E. coli 190317
experimental.protocol: MIC of compound alone, broth microdilution
Type: cell-based
condition.description: Escherichia coli; strain 190317; compound alone; read-out: MIC compounds of the invention alone
// values below are reported MIC
attribute.measured: MIC

compound="O=C(CCO)Nc1ccn(C2=CC3CN(C2)C(=O)N3OS(=O)(=O)[O-])n1.[Na+] (stereo not shown)" attribute_measured=MIC endpoint_value="8 µg/mL"
compound="NCCNC(=O)c1cnn(C2=CC3CN(C2)C(=O)N3OS(=O)(=O)O)c1 (stereo not shown)" attribute_measured=MIC endpoint_value="4 µg/mL"
compound="O=C(NCCN1CCOCC1)c1ccn(C2=CC3CN(C2)C(=O)N3OS(=O)(=O)O)n1 (stereo not shown)" attribute_measured=MIC endpoint_value="> 32 µg/mL"
compound="O=C(Nc1ncco1)c1ccn(C2=CC3CN(C2)C(=O)N3OS(=O)(=O)[O-])n1.[Na+] (stereo not shown)" attribute_measured=MIC endpoint_value="8 µg/mL"

----------
// values below are reported pIC50
tested.on: OXA-11 (Pseudomonas aeruginosa, UniProt Q06778)
pIC50: −log10 of the molar value.
attribute.measured: pIC50

compound="O=C1N2CC(n3ccc(F)n3)=CC(C2)N1OS(=O)(=O)[O-].[Na+] (stereo not drawn) [Example 18]" attribute_measured=pIC50 endpoint_value=7.34
compound="O=C(CO)Nc1ccn(C2=CC3CN(C2)C(=O)N3OS(=O)(=O)[O-])n1.[Na+] (stereo not drawn) [Example 50]" attribute_measured=pIC50 endpoint_value=7.96
compound="O=C1N2CC(n3cc(C(F)(F)F)cn3)=CC(C2)N1OS(=O)(=O)[O-].[Na+] (stereo not drawn) [Example 22]" attribute_measured=pIC50 endpoint_value=6.66
compound="O=C1N2CC(n3cc(CO)cn3)=CC(C2)N1OS(=O)(=O)[O-].[Na+] (stereo not drawn) [Example 71]" attribute_measured=pIC50 endpoint_value=6.59
compound="O=C(Nc1ccccn1)c1ccn(C2=CC3CN(C2)C(=O)N3OS(=O)(=O)[O-])n1.[Na+] (stereo not drawn) [Example 80]" attribute_measured=pIC50 endpoint_value=8.26
compound="O=C(NCCN1CCOCC1)c1ccn(C2=CC3CN(C2)C(=O)N3OS(=O)(=O)O)n1 (stereo not drawn) [Example 72]" attribute_measured=pIC50 endpoint_value=7.44

----------
tested.on: AmpC (P99) (Enterobacter cloacae)
Sequence (P05364 21-381): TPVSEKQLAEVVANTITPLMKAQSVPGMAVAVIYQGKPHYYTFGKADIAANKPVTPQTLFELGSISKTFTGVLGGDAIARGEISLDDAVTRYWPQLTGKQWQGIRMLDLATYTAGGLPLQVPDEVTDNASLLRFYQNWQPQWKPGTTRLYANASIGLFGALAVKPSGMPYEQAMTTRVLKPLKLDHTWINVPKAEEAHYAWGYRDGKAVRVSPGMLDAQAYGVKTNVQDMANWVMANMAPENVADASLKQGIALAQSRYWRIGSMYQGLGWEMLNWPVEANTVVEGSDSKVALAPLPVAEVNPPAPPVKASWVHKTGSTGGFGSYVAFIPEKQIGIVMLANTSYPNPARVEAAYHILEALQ
experimental.protocol: biochemical
// values below are reported IC50
attribute.measured: IC50

molecule="COc1cnn(C2=CC3CN(C2)C(=O)N3OS(=O)(=O)[O-])c1.[Na+] (stereo not shown)" endpoint_value="0.015 µM"
molecule="O=C(Nc1ncns1)c1ccn(C2=CC3CN(C2)C(=O)N3OS(=O)(=O)O)n1 (stereo not shown)" endpoint_value="0.014 µM"
molecule="[2H]c1nn(C2=CC3CN(C2)C(=O)N3OS(=O)(=O)[O-])c([2H])c1[2H].[Na+] (stereo not shown)" endpoint_value="0.012 µM"
molecule="O=C(Nc1nccs1)c1ccn(C2=CC3CN(C2)C(=O)N3OS(=O)(=O)[O-])n1.[Na+] (stereo not shown)" endpoint_value="0.0094 µM"

----------
tested.on: AmpC (PAE) (Pseudomonas aeruginosa)
experimental.protocol: biochemical
// values below are reported IC50
attribute.measured: IC50

molecule="NCCc1ccn(C2=CC3CN(C2)C(=O)N3OS(=O)(=O)O)n1 (stereo not drawn)" tested_on="AmpC (PAE) (Pseudomonas aeruginosa)" endpoint_value="160 nM"
molecule="O=C1N2CC(n3ccnc3CO)=CC(C2)N1OS(=O)(=O)[O-].[Na+] (stereo not drawn)" tested_on="AmpC (PAE) (Pseudomonas aeruginosa)" endpoint_value="600 nM"
molecule="O=C(N[C@H]1CCNC1)c1ccn(C2=CC3CN(C2)C(=O)N3OS(=O)(=O)O)n1 (stereo partly drawn)" tested_on="AmpC (PAE) (Pseudomonas aeruginosa)" endpoint_value="270 nM"

----------
// values below are reported IC50
tested.on: AmpC (PAE) (Pseudomonas aeruginosa, UniProt P24735)
Sequence (P24735 27-397): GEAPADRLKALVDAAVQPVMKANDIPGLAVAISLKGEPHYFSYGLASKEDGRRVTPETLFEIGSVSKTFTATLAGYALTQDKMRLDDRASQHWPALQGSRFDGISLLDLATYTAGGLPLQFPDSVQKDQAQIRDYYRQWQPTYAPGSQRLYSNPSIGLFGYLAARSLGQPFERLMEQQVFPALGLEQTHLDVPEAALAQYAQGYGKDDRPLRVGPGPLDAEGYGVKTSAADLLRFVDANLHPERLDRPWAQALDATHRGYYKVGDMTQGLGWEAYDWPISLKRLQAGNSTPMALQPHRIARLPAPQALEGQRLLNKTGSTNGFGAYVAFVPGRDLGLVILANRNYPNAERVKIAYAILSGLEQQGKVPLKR
experimental.protocol: biochemical
attribute.measured: IC50 (µM)

molecule="O=C(CCO)Nc1ccn(C2=CC3CN(C2)C(=O)N3OS(=O)(=O)[O-])n1.[Na+] (stereo not drawn)" attribute_measured=IC50 endpoint_value=0.078
molecule="NCCc1cnn(C2=CC3CN(C2)C(=O)N3OS(=O)(=O)O)c1 (stereo not drawn)" attribute_measured=IC50 endpoint_value=0.088
molecule="O=C(NOCCO)c1ccn(C2=CC3CN(C2)C(=O)N3OS(=O)(=O)[O-])n1.[Na+] (stereo not drawn)" attribute_measured=IC50 endpoint_value=0.48
molecule="O=C(Nc1ccn(C2=CC3CN(C2)C(=O)N3OS(=O)(=O)[O-])n1)c1nccs1.[Na+] (stereo not drawn)" attribute_measured=IC50 endpoint_value=0.056
molecule="O=C1N2CC(n3ccsc3=O)=CC(C2)N1OS(=O)(=O)[O-].[Na+] (stereo not drawn)" attribute_measured=IC50 endpoint_value=0.12
molecule="O=C(Nc1ncns1)c1ccn(C2=CC3CN(C2)C(=O)N3OS(=O)(=O)O)n1 (stereo not drawn)" attribute_measured=IC50 endpoint_value=0.095
molecule="O=C(NCCN1CCOCC1)c1ccn(C2=CC3CN(C2)C(=O)N3OS(=O)(=O)O)n1 (stereo not drawn)" attribute_measured=IC50 endpoint_value=0.54
molecule="O=C1N2CC(n3ncnn3)=CC(C2)N1OS(=O)(=O)[O-].[Na+] (stereo not drawn)" attribute_measured=IC50 endpoint_value=0.15
molecule="CC(=O)c1ccn(C2=CC3CN(C2)C(=O)N3OS(=O)(=O)[O-])n1.[Na+] (stereo not drawn) [Example 28, sulfate]" attribute_measured=IC50 endpoint_value=0.2
molecule="O=C1N2CC(n3ccc(CO)n3)=CC(C2)N1OS(=O)(=O)O (stereo not drawn)" attribute_measured=IC50 endpoint_value=0.052
molecule="NCCONC(=O)c1cn(C2=CC3CN(C2)C(=O)N3OS(=O)(=O)O)nn1 (stereo not drawn)" attribute_measured=IC50 endpoint_value=0.53
molecule="O=C(Nc1nccs1)c1ccn(C2=CC3CN(C2)C(=O)N3OS(=O)(=O)[O-])n1.[Na+] (stereo not drawn)" attribute_measured=IC50 endpoint_value=0.13
molecule="O=C1N2CC(n3nccc3CCO)=CC(C2)N1OS(=O)(=O)[O-].[Na+] (stereo not drawn)" attribute_measured=IC50 endpoint_value=0.43
molecule="[2H]c1nn(C2=CC3CN(C2)C(=O)N3OS(=O)(=O)[O-])c([2H])c1[2H].[Na+] (stereo not drawn)" attribute_measured=IC50 endpoint_value=0.0094
molecule="CNCc1cn(C2=CC3CN(C2)C(=O)N3OS(=O)(=O)O)nn1 (stereo not drawn)" attribute_measured=IC50 endpoint_value=0.33
molecule="CC(=O)c1cnn(C2=CC3CN(C2)C(=O)N3OS(=O)(=O)[O-])c1.[Na+] (stereo not drawn)" attribute_measured=IC50 endpoint_value=0.26
molecule="O=C(NC1CCNCC1)c1ccn(C2=CC3CN(C2)C(=O)N3OS(=O)(=O)O)n1 (stereo not drawn)" attribute_measured=IC50 endpoint_value=0.21
molecule="O=C1N2CC(n3cc(N4CCNCC4)cn3)=CC(C2)N1OS(=O)(=O)O (stereo not drawn)" attribute_measured=IC50 endpoint_value=0.18
molecule="O=C(N[C@@H]1CCNC1)c1ccn(C2=CC3CN(C2)C(=O)N3OS(=O)(=O)O)n1 (stereo partly drawn)" attribute_measured=IC50 endpoint_value=0.23
molecule="O=C(Nc1cc[nH]n1)c1ccn(C2=CC3CN(C2)C(=O)N3OS(=O)(=O)[O-])n1.[Na+] (stereo not drawn)" attribute_measured=IC50 endpoint_value=0.13
molecule="O=C(CO)Nc1ccn(C2=CC3CN(C2)C(=O)N3OS(=O)(=O)[O-])n1.[Na+] (stereo not drawn)" attribute_measured=IC50 endpoint_value=0.067
molecule="NC(=O)CONC(=O)c1ccn(C2=CC3CN(C2)C(=O)N3OS(=O)(=O)[O-])n1.[Na+] (stereo not drawn)" attribute_measured=IC50 endpoint_value=0.11
molecule="O=C1N2CC(n3ccc([C@H](O)CO)n3)=CC(C2)N1OS(=O)(=O)[O-].[Na+] (stereo partly drawn)" attribute_measured=IC50 endpoint_value=0.21
molecule="O=C(Nc1nncs1)c1ccn(C2=CC3CN(C2)C(=O)N3OS(=O)(=O)[O-])n1.[Na+] (stereo not drawn)" attribute_measured=IC50 endpoint_value=0.16
